B1: WDR41 (parent)
chain: WTMQAYERNFWDPSPQLDTQQEIK

Variants of: B1
procedure_details: protein stability index of a GFP-peptide fusion (GPS, HEK-293T) (PSI 1-6); higher = more stable;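 note: lentivirally expressed fusions sorted by FACS into six bins by GFP to DsRed ratio, PSI derived from sequencing read proportions per bin multiplied by bin number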
assay_context: c terminus: a fixed tail appended
readout_name: protein stability index
Keep the answer to the number alone.

# variant_label, protein stability index
measured = [
    ("K24N", 2.31),
    ("E22G", 2.34),
]

Prompt: Requested read-out: protein stability index. Entry: T2H
Completion: 1.89

Prompt: What about M3K ?
Completion: 2.96

Prompt: Moving on to the next variant: W1G
Completion: 4.73

Prompt: Also, D18K please.
Completion: 2.16

Prompt: Item: Q20P
Completion: 2.06

Prompt: Entry to check: Q4P
Completion: 3.21

Prompt: Then this variant: P13Q
Completion: 2.65

Prompt: Same read-out for E22S ?
Completion: 2.96

Prompt: Same thing, different variant: Q20F
Completion: 1.99

Prompt: Can you handle Q4F next?
Completion: 2.38

Prompt: Moving on to M3W
Completion: 2.77

Prompt: // query: E22L
Completion: 2.07
